test-summary: physchem

{"columns": ["molecular-string", "pKa"],
 "data": [
  ["Nc1nc2cnc(C(=O)N3CCOC[C@@H]3c3ccc(C(F)(F)F)cc3)cc2c2c1COC2", 4.27]
]}

----------
test-summary: Solubility of Form 1 in aqueous media
Format: physicochemical
condition-details: aqueous buffer; aqueous media at pHs of 1-8
outcome-measure: solubility

{"columns": ["molecule", "result"],
 "data": [
  ["Nc1nc2cnc(C(=O)N3CCOC[C@@H]3c3ccc(C(F)(F)F)cc3)cc2c2c1COC2 [Form 1]", "> 10 µg/mL"]
]}
